Hey, just so you know, these numbers are from ChEMBL document CHEMBL1143010.

- System: MCF7
- test name: Resistance index, IC50 for doxorubicin-resistant human MCF7 cells/IC50 for doxorubicin-sensitive human MCF7 cells
- Assay type: ADME, cell-based
readout label: Ratio IC50
One number for each entry.

// below: answered molecules
INSERT INTO results (smiles, readout_label, readout_number) VALUES
  ('O=C1C2=C(C(=O)c3ccccc31)[C@]1(CS2)NC(=O)[C@@H]2CCCN2C1=O', 'Ratio IC50', 1.3),
  ('O=C1C2=C(C(=O)c3ccccc31)[C@@]1(CS2)NC(=O)[C@@H]2CCCN2C1=O', 'Ratio IC50', 3.7);

Turning now to a further record.
Ratio IC50 for CSCC[C@@H]1NC(=O)[C@]2(CSC3=C2C(=O)c2ccccc2C3=O)NC1=O ?
4.4
